# Tested on: 454973-116-R2-J3-PDC spheroids, viability, % test/control
# assay: Anticancer human tumor 454973-116-R2-J3-PDC patient-derived pancreatic carcinoma cell line growth inhibition [GQUAD]; active means viability on the fitted dose curve at most 10% of control; inactive means the rest
# study.conditions: second compound 10 µM; first compound 1 µM; spheroids with HUVEC and MSC
Outcomes: active, inactive

molecule	class.label
O=C(NO)c1cnc(N2CCN(S(=O)(=O)c3ccc4ccccc4c3)CC2)nc1 + CN(C)c1ccc(Nc2c3ccc(NC(=O)CCN4CCCC4)cc3nc3cc(NC(=O)CCN4CCCC4)ccc23)cc1	active
CC(C)n1c(=O)n(C)c2cnc3cc(F)c(-c4ccc(OCCCN5CCCCC5)nc4)cc3c21 + CN(C)c1ccc(Nc2c3ccc(NC(=O)CCN4CCCC4)cc3nc3cc(NC(=O)CCN4CCCC4)ccc23)cc1	inactive
CC1COCCN1c1cc(C2(S(C)(=N)=O)CC2)nc(-c2ccnc3[nH]ccc23)n1 (stereo unspecified) + Cc1[nH]c2ccc(F)cc2c1-c1nc2c3cccnc3c3ncccc3c2[nH]1	inactive
COc1cc(C2c3cc4c(cc3C(OC3OC5COC(C)OC5C(O)C3O)C3COC(=O)C23)OCO4)cc(OC)c1O (stereo unspecified) + Cc1[nH]c2ccc(F)cc2c1-c1nc2c3cccnc3c3ncccc3c2[nH]1	inactive
CCCS(=O)(=O)Nc1ccc(F)c(C(=O)c2c[nH]c3ncc(-c4ccc(Cl)cc4)cc23)c1F + CN(C)c1ccc(Nc2c3ccc(NC(=O)CCN4CCCC4)cc3nc3cc(NC(=O)CCN4CCCC4)ccc23)cc1	inactive
CCCS(=O)(=O)Nc1ccc(F)c(C(=O)c2c[nH]c3ncc(-c4ccc(Cl)cc4)cc23)c1F + Cc1[nH]c2ccc(F)cc2c1-c1nc2c3cccnc3c3ncccc3c2[nH]1	inactive
CC1COCCN1c1cc(-c2ccnn2C)c2ccnc(-c3ccn[nH]3)c2n1 (stereo unspecified) + Cc1cnc(CNC(=O)c2c(=O)c3ccc(N4CCCN(C)CC4)nc3n3c2sc2ccccc23)cn1	active
O=C(NO)c1cnc(N2CCN(S(=O)(=O)c3ccc4ccccc4c3)CC2)nc1 + Cc1cnc(CNC(=O)c2c(=O)c3ccc(N4CCCN(C)CC4)nc3n3c2sc2ccccc23)cn1	active
CC(C)(O)C1CCC(Nc2ccc3ncc(-c4cccc(C(F)(F)F)c4)n3n2)CC1 (stereo unspecified) + CN(C)c1ccc(Nc2c3ccc(NC(=O)CCN4CCCC4)cc3nc3cc(NC(=O)CCN4CCCC4)ccc23)cc1	inactive
CCCS(=O)(=O)Nc1ccc(F)c(C(=O)c2c[nH]c3ncc(-c4ccc(Cl)cc4)cc23)c1F + Cc1cnc(CNC(=O)c2c(=O)c3ccc(N4CCCN(C)CC4)nc3n3c2sc2ccccc23)cn1	inactive
O=c1[nH]cc(F)c(=O)[nH]1 + Cc1[nH]c2ccc(F)cc2c1-c1nc2c3cccnc3c3ncccc3c2[nH]1	inactive

###

# Test system: 454973-116-R2-J3-PDC spheroids, viability, % test/control
# assay: Anticancer human tumor 454973-116-R2-J3-PDC cell line growth inhibition [GQUAD]; active = viability on the fitted dose curve at most 10% of control; inactive = the rest;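 further: spheroids exposed to compounds for seven days; 100% = DMSO vehicle control viability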
# study.conditions: second compound 10 µM; first compound 0.316 µM; spheroids with HUVEC and MSC
Outcomes: yes (1) for active, no (0) for inactive

compound	class.label
C#Cc1c(F)ccc2cc(O)cc(-c3ncc4c(N5CC6CCC(C5)N6)nc(OCC56CCCN5CC(F)C6)nc4c3F)c12 (stereo not given) + CN(C)c1ccc(Nc2c3ccc(NC(=O)CCN4CCCC4)cc3nc3cc(NC(=O)CCN4CCCC4)ccc23)cc1	no (0)
O=C(NO)c1cnc(N2CCN(S(=O)(=O)c3ccc4ccccc4c3)CC2)nc1 + Cc1[nH]c2ccc(F)cc2c1-c1nc2c3cccnc3c3ncccc3c2[nH]1	no (0)
C=CC(=O)N1CCN(c2nc(=O)n(-c3c(C)ccnc3C(C)C)c3nc(-c4c(O)cccc4F)c(F)cc23)C(C)C1 (stereo not given) + Cc1cnc(CNC(=O)c2c(=O)c3ccc(N4CCCN(C)CC4)nc3n3c2sc2ccccc23)cn1	no (0)
COc1cccc2c1C(=O)c1c(O)c3c(c(O)c1C2=O)CC(O)(C(=O)CO)CC3OC1CC(N)C(O)C(C)O1 (stereo not given) + Cc1cnc(CNC(=O)c2c(=O)c3ccc(N4CCCN(C)CC4)nc3n3c2sc2ccccc23)cn1	no (0)
CC(C)n1c(=O)n(C)c2cnc3cc(F)c(-c4ccc(OCCCN5CCCCC5)nc4)cc3c21 + Cc1cnc(CNC(=O)c2c(=O)c3ccc(N4CCCN(C)CC4)nc3n3c2sc2ccccc23)cn1	yes (1)
Cn1ncnc1[C@H]1c2n[nH]c(=O)c3cc(F)cc(c23)N[C@@H]1c1ccc(F)cc1 + Cc1cnc(CNC(=O)c2c(=O)c3ccc(N4CCCN(C)CC4)nc3n3c2sc2ccccc23)cn1	no (0)
COc1cc(C2c3cc4c(cc3C(OC3OC5COC(C)OC5C(O)C3O)C3COC(=O)C23)OCO4)cc(OC)c1O (stereo not given) + Cc1cnc(CNC(=O)c2c(=O)c3ccc(N4CCCN(C)CC4)nc3n3c2sc2ccccc23)cn1	no (0)
CC(=O)O[C@H]1C(=O)[C@@]2(C)[C@H]([C@H](OC(=O)c3ccccc3)[C@]3(O)C[C@H](OC(=O)[C@H](O)[C@@H](NC(=O)c4ccccc4)c4ccccc4)C(C)=C1C3(C)C)[C@]1(OC(C)=O)CO[C@@H]1C[C@@H]2O + Cc1cnc(CNC(=O)c2c(=O)c3ccc(N4CCCN(C)CC4)nc3n3c2sc2ccccc23)cn1	yes (1)
COc1cc(C2c3cc4c(cc3C(OC3OC5COC(C)OC5C(O)C3O)C3COC(=O)C23)OCO4)cc(OC)c1O (stereo not given) + Cc1[nH]c2ccc(F)cc2c1-c1nc2c3cccnc3c3ncccc3c2[nH]1	no (0)
CC[C@@]1(O)C(=O)OCc2c1cc1n(c2=O)Cc2cc3c(CN(C)C)c(O)ccc3nc2-1 + Cc1cnc(CNC(=O)c2c(=O)c3ccc(N4CCCN(C)CC4)nc3n3c2sc2ccccc23)cn1	yes (1)
